- PROTOCOL: Dog pharmacokinetic study (intravenous and subcutaneous, 67 μg/kg)
- Assay type: in vivo
- MEASUREMENT_PARAMETERS: male, beagle, plasma, 67 ug/kg; dog, intravenous 67 μg/kg, Tables 6B/6C, vehicle not given
Where a SMILES comes first, the peptide text is derived from it. [ ]: non-standard residue; d: D form. The star is where a group is joined. ξ: configuration not given here. Ala(6-(2-MePh)pyridin-3-yl) = Cc1ccccc1-c1ccc(C[C@H](N)C(=O)O)cn1; Bip(2'-Et-4'-OMe) = CCc1cc(OC)ccc1-c1ccc(C[C@H](N)C(=O)O)cc1; Lactoyl(3-(imidazol-4-yl)) = O=C([C@@H](O)Cc1c[nH]cn1)*; ξαMePhe(2-F) = CC(N)(Cc1ccccc1F)C(=O)O; ξαMeP = CC1(C(=O)O)CCCN1

>  <COMPOUND>
CCc1cc(OC)ccc1-c1ccc(C[C@H](NC(=O)[C@H](CC(=O)O)NC(=O)[C@H](Cc2c[nH]cn2)NC(=O)[C@@H](NC(=O)C(C)(Cc2ccccc2F)NC(=O)[C@@H](NC(=O)CNC(=O)[C@H](CCC(=O)O)NC(=O)C2(C)CCCN2C(=O)[C@@H](O)Cc2c[nH]cn2)[C@@H](C)O)[C@@H](C)O)C(=O)N[C@@H](Cc2ccc(-c3ccccc3C)nc2)C(N)=O)cc1 (stereo partly shown) [SEQ ID NO: 151] ({Lactoyl(3-(imidazol-4-yl))}-[ξαMeP]EGT[ξαMePhe(2-F)]THD[Bip(2'-Et-4'-OMe)][Ala(6-(2-MePh)pyridin-3-yl)]-NH2)

>  <MRT, h>
4.4

$$$$

---

- PROTOCOL: Dog pharmacokinetic study (intravenous and subcutaneous, 67 μg/kg)
- Format: in vivo
- MEASUREMENT_PARAMETERS: male, beagle, plasma, sc, 67 ug/kg; dog, subcutaneous 67 μg/kg, propylene glycol:phosphate buffer (50:50)
Where a SMILES comes first, the peptide text is derived from it. [ ]: non-standard residue; d: D form. Ala(6-(2-MePh)pyridin-3-yl) = Cc1ccccc1-c1ccc(C[C@H](N)C(=O)O)cn1; Bip(2'-Et-4'-OMe) = CCc1cc(OC)ccc1-c1ccc(C[C@H](N)C(=O)O)cc1; αMePhe(2-F) = C[C@](N)(Cc1ccccc1F)C(=O)O; Aib = CC(C)(N)C(=O)O
REPORTED_ENDPOINT: AUC (µM·h)

>  <MOLECULE>
CCc1cc(OC)ccc1-c1ccc(C[C@H](NC(=O)[C@H](CC(=O)O)NC(=O)[C@H](CO)NC(=O)[C@@H](NC(=O)[C@](C)(Cc2ccccc2F)NC(=O)[C@@H](NC(=O)CNC(=O)[C@H](CCC(=O)O)NC(=O)C(C)(C)NC(=O)[C@@H](N)Cc2c[nH]cn2)[C@@H](C)O)[C@@H](C)O)C(=O)N[C@@H](Cc2ccc(-c3ccccc3C)nc2)C(N)=O)cc1 [SEQ ID NO: 9] (H-H[Aib]EGT[αMePhe(2-F)]TSD[Bip(2'-Et-4'-OMe)][Ala(6-(2-MePh)pyridin-3-yl)]-NH2)

>  <REPORTED_ENDPOINT>
AUC

>  <VAL>
1.22

$$$$

---

- PROTOCOL: Dog pharmacokinetic study (intravenous and subcutaneous, 67 μg/kg)
- Type: in vivo
- MEASUREMENT_PARAMETERS: male, beagle, plasma, sc, 67 ug/kg; dog, subcutaneous 67 μg/kg, text of b538; read-out: maximum plasma concentration (Cmax)
Where a SMILES comes first, the peptide text is derived from it. [ ]: non-standard residue; d: D form. Ala(6-(2-MePh)pyridin-3-yl) = Cc1ccccc1-c1ccc(C[C@H](N)C(=O)O)cn1; Bip(2'-Et-4'-OMe) = CCc1cc(OC)ccc1-c1ccc(C[C@H](N)C(=O)O)cc1; αMePhe(2-F) = C[C@](N)(Cc1ccccc1F)C(=O)O; Aib = CC(C)(N)C(=O)O

>  <MOLECULE>
CCc1cc(OC)ccc1-c1ccc(C[C@H](NC(=O)[C@H](CC(=O)O)NC(=O)[C@H](CO)NC(=O)[C@@H](NC(=O)[C@](C)(Cc2ccccc2F)NC(=O)[C@@H](NC(=O)CNC(=O)[C@H](CCC(=O)O)NC(=O)C(C)(C)NC(=O)[C@@H](N)Cc2c[nH]cn2)[C@@H](C)O)[C@@H](C)O)C(=O)N[C@@H](Cc2ccc(-c3ccccc3C)nc2)C(N)=O)cc1 [SEQ ID NO: 9] (H-H[Aib]EGT[αMePhe(2-F)]TSD[Bip(2'-Et-4'-OMe)][Ala(6-(2-MePh)pyridin-3-yl)]-NH2)

>  <Cmax, nM>
90

$$$$

---

- PROTOCOL: Dog pharmacokinetic study (intravenous and subcutaneous, 67 μg/kg)
- Type: in vivo
- MEASUREMENT_PARAMETERS: male, beagle, plasma, 67 ug/kg; dog, intravenous 67 μg/kg, propylene glycol:phosphate buffer (50:50)
Where a SMILES comes first, the peptide text is derived from it. [ ]: non-standard residue; d: D form. Ala(6-(2-MePh)pyridin-3-yl) = Cc1ccccc1-c1ccc(C[C@H](N)C(=O)O)cn1; Bip(2'-Et-4'-OMe) = CCc1cc(OC)ccc1-c1ccc(C[C@H](N)C(=O)O)cc1; αMePhe(2-F) = C[C@](N)(Cc1ccccc1F)C(=O)O; Aib = CC(C)(N)C(=O)O

>  <COMPOUND>
CCc1cc(OC)ccc1-c1ccc(C[C@H](NC(=O)[C@H](CC(=O)O)NC(=O)[C@H](CO)NC(=O)[C@@H](NC(=O)[C@](C)(Cc2ccccc2F)NC(=O)[C@@H](NC(=O)CNC(=O)[C@H](CCC(=O)O)NC(=O)C(C)(C)NC(=O)[C@@H](N)Cc2c[nH]cn2)[C@@H](C)O)[C@@H](C)O)C(=O)N[C@@H](Cc2ccc(-c3ccccc3C)nc2)C(N)=O)cc1 [SEQ ID NO: 9] (H-H[Aib]EGT[αMePhe(2-F)]TSD[Bip(2'-Et-4'-OMe)][Ala(6-(2-MePh)pyridin-3-yl)]-NH2)

>  <AUC / nM·h>
1270

$$$$

---

- PROTOCOL: Dog pharmacokinetic study (intravenous and subcutaneous, 67 μg/kg)
- Type: in vivo
- MEASUREMENT_PARAMETERS: male, beagle, plasma, sc, 67 ug/kg; dog, subcutaneous 67 μg/kg, propylene glycol:phosphate buffer (50:50); read-out: t1/2 (converted)
Where a SMILES comes first, the peptide text is derived from it. [ ]: non-standard residue; d: D form. Ala(6-(2-MePh)pyridin-3-yl) = Cc1ccccc1-c1ccc(C[C@H](N)C(=O)O)cn1; Bip(2'-Et-4'-OMe) = CCc1cc(OC)ccc1-c1ccc(C[C@H](N)C(=O)O)cc1; αMePhe(2-F) = C[C@](N)(Cc1ccccc1F)C(=O)O; Aib = CC(C)(N)C(=O)O

>  <COMPOUND>
CCc1cc(OC)ccc1-c1ccc(C[C@H](NC(=O)[C@H](CC(=O)O)NC(=O)[C@H](CO)NC(=O)[C@@H](NC(=O)[C@](C)(Cc2ccccc2F)NC(=O)[C@@H](NC(=O)CNC(=O)[C@H](CCC(=O)O)NC(=O)C(C)(C)NC(=O)[C@@H](N)Cc2c[nH]cn2)[C@@H](C)O)[C@@H](C)O)C(=O)N[C@@H](Cc2ccc(-c3ccccc3C)nc2)C(N)=O)cc1 [SEQ ID NO: 9] (H-H[Aib]EGT[αMePhe(2-F)]TSD[Bip(2'-Et-4'-OMe)][Ala(6-(2-MePh)pyridin-3-yl)]-NH2)

>  <half-life (h)>
6.9

$$$$

---

- PROTOCOL: Dog pharmacokinetic study (intravenous and subcutaneous, 67 μg/kg)
- Format: in vivo
- MEASUREMENT_PARAMETERS: male, beagle, plasma, sc, 67 ug/kg; dog, subcutaneous 67 μg/kg, Tables 6B/6C (Table I footnote: 0.2 M Tris buffer pH 8.0)
Where a SMILES comes first, the peptide text is derived from it. [ ]: non-standard residue; d: D form. The star is where a group is joined. ξ: configuration not given here. Ala(6-(2-MePh)pyridin-3-yl) = Cc1ccccc1-c1ccc(C[C@H](N)C(=O)O)cn1; Bip(2'-Et-4'-OMe) = CCc1cc(OC)ccc1-c1ccc(C[C@H](N)C(=O)O)cc1; Lactoyl(3-(imidazol-4-yl)) = O=C([C@@H](O)Cc1c[nH]cn1)*; ξαMePhe(2-F) = CC(N)(Cc1ccccc1F)C(=O)O; ξαMeP = CC1(C(=O)O)CCCN1
REPORTED_ENDPOINT: Tmax (h)

>  <MOLECULE>
CCc1cc(OC)ccc1-c1ccc(C[C@H](NC(=O)[C@H](CC(=O)O)NC(=O)[C@H](Cc2c[nH]cn2)NC(=O)[C@@H](NC(=O)C(C)(Cc2ccccc2F)NC(=O)[C@@H](NC(=O)CNC(=O)[C@H](CCC(=O)O)NC(=O)C2(C)CCCN2C(=O)[C@@H](O)Cc2c[nH]cn2)[C@@H](C)O)[C@@H](C)O)C(=O)N[C@@H](Cc2ccc(-c3ccccc3C)nc2)C(N)=O)cc1 (stereo partly shown) [SEQ ID NO: 151] ({Lactoyl(3-(imidazol-4-yl))}-[ξαMeP]EGT[ξαMePhe(2-F)]THD[Bip(2'-Et-4'-OMe)][Ala(6-(2-MePh)pyridin-3-yl)]-NH2)

>  <VAL>
1.8

$$$$
